tested on: Influenza B Massachusetts virus; assay: Influenza B Mass. in mice, oral; late read day 5 (Table 39), 7 (Table 40), 11 (Tables 61, 65); control fraction 16/20 (Table 61), else 100%; format: in vivo, mouse; conditions: total dose .5 μg (500 ng)
Each entry below lists one item and its recorded No. animals surviving when 100% (Table 61: 16/20) of controls are dead value.
// keep it numeric: no unit symbol after the value

- compound: "NC(=S)NN=C1CCCCC1"
  measuredOn: "Influenza B Massachusetts virus"
  numericReadout: 1

Exam item: Which No. animals surviving when 100% (Table 61: 16/20) of controls are dead value is on record for NNC(=O)c1ccncc1 [Isoniazid, isoniazid, reference compound] ?
Marked response: 0

Exam item: Which No. animals surviving when 100% (Table 61: 16/20) of controls are dead value is on record for NNC(N)=O [semicarbazide] ?
Marked response: 1

Exam item: Which No. animals surviving when 100% (Table 61: 16/20) of controls are dead value is on record for N#CCC(=O)NN [Cyonacetic Acid Carbazide, Cyanoacetic Acid Hydrazide] ?
Marked response: 4

----------
Tested on: Influenza B Massachusetts virus
Experiment: Influenza B Mass. in mice, oral; late read day 5 (Table 39), 7 (Table 40), 11 (Tables 61, 65); control fraction 16/20 (Table 61), else 100%
Assay type: in vivo, mouse
Settings: total dose .000005 μg (5 pg)
Procedure: A portion of a commercially available sample of amantadine was recrystallized from isopropanol. The activity of the material against Influenza B Mass. was tested for the sample as obtained, the recrystallized portion, and the mother liquor obtained from recrystallizing the portion.
Each entry below lists one item and its recorded Survivors value.
// keep it numeric: no unit symbol after the value

- compound: "NNC(=O)c1ccncc1 [Isoniazid, isoniazid, reference compound]"
  numericReadout: 0
- compound: "N#CCC(=O)NN [Cyonacetic Acid Carbazide, Cyanoacetic Acid Hydrazide]"
  numericReadout: 3
- compound: "NNC(N)=O [semicarbazide]"
  numericReadout: 0

Exam item: Which Survivors value is on record for NC(=S)NN=C1CCCCC1 [Cyclohexanone, thiosemicarBazone, Cyclohexanone, thiosemicarbazone] ?
Marked response: 5

----------
tested on: Influenza, Ann Arbor virus; test: Influenza Ann Arbor in mice, oral; schedule by table; late read day 5 (Tables 15, 25, 29, 30), 6 (18, 20, 22, 23, 26, 27, 28, 54), 7 (14, 19, 21, 24, 53, 56), 8 (16, 17, 51), 9 (11, 55); assay type: in vivo, mouse; settings: total dose 3 mg
measure: Survivors
// keep it numeric: no unit symbol after the value

Exam item: Which Survivors value is on record for "CCOC(=O)CC(C)=NNC(N)=S" ?
Marked response: 0

Exam item: Which Survivors value is on record for CN(C)N [1,1-dimethylhydrazine] ?
Marked response: 0

Exam item: Which Survivors value is on record for "C=CCNC(=S)NN=C1Cc2ccccc2C1" ?
Marked response: 1

----------
tested on: Herpes virus; assay: Herpes virus in chicken eggs, single dose 24 hours pre-infection; assay type: in vivo, chick embryo; details: .05 μg
measure: Deaths on day 2
// keep it numeric: no unit symbol after the value

Worked examples, 3 molecules total:
- molecule: "CCC(C)=NNC(N)=S"
  Deaths on day 2: 6
- molecule: "NNC(N)=S [Thiosemicarbazide, thiosemicarbazide]"
  Deaths on day 2: 3
- molecule: "NNC(N)=O [semicarbazide]"
  Deaths on day 2: 4

Now for the molecule whose Deaths on day 2 we want.
Exam item: Which Deaths on day 2 value is on record for NN [hydrazine] ?
Marked response: 5
